Source of measurements: PubChem BioAssay (NCI)

- Tested on: HL-60(TB) leukemia
- Protocol details: NCI-60 one-dose screen, 48 h
- Measurement conditions: 10 µM unless noted
About 83,000 compounds went through this panel and 20% of them were active in at least one assay; those are over-represented in the sample as a whole. Active and inactive are the calls of the source. Rule for the calls: active = growth percent below 10; inactive = the rest.
One label from this list, please: yes (1) for active, no (0) for inactive

Reference set, count: 3
* Clc1cn2cc(-c3ccc(Cl)c(Cl)c3Cl)nc2s1 | no (0)
* O=C(/C=C\c1ccccc1)N1c2ccccc2CC1c1c[nH]c2ccccc12 (centres undefined) | no (0)
* CN(C)CCCCC(C(=O)CBr)(c1ccccc1)c1ccccc1 | yes (1)

Input: Field: outcome | Entry: `c1ccc2c(c1)nc(CN1CCOCC1)n1cc(N3CCCC3)nc21`
Output: no (0)

Input: Let us now turn to `COc1cc2nc(-c3cnc(N(C)C)nc3)nc(NC3CCN(Cc4ccccc4)CC3)c2cc1OC`
Output: yes (1)

Input: What do you get for `O=C(/C=C/c1cccc(Cl)c1)c1ccc(O)c(CN2CCN(c3cc4c(cc3F)c(=O)c(C(=O)O)cn4C3CC3)CC2)c1` ?
Output: no (0)

Input: Please do the same for `O=C(CCN1CCCC1)Nc1ccc2c(NCCc3ccccc3)c3ccccc3nc2c1` as well.
Output: yes (1)

Input: How about this molecule: `c1ccc([P+](CCCc2n(Cc3ccc4ccccc4c3)c3ccccc3[n+]2Cc2ccc3ccccc3c2)(c2ccccc2)c2ccccc2)cc1`
Output: no (0)

Input: And the next one, `O=C(Nc1cccc(Cl)c1)Nc1ncc(CCNc2ncnc3ccsc23)s1` ?
Output: yes (1)

* * *

- Tested on: HL-60(TB) leukemia
- Protocol details: NCI-60 one-dose screen, 48 h (100 = growth as untreated, 0 = no growth, -100 = all killed)
- Measurement conditions: 10 µM unless noted
About 83,000 compounds went through this panel and 20% of them were active in at least one assay; those are over-represented in the sample as a whole.
Some compounds, each annotated with its measured growth.
Numbers only here, please. The scale is %.

Solved cases (5 shown):
- Oc1cc2ccccc2c(-c2c(O)c(O)cc3ccccc23)c1O: 19.8
- COc1ccc2c(c1)c(C(=O)c1nc(-c3cn(C)c4ccccc34)no1)cn2C: 92
- Cn1nc(CC#N)c2c(=N)n(N)cnc21: 84.4
- CCCCCC1CCCCN1C(=O)OCCCC (configuration not stated): 102
- COc1ccc(Br)c(C=O)c1: -16.3

Input: So what's the measured growth for this one? `C[n+]1c2ccccc2nc2c(N)cc(N)cc21`
Output: 74.7

Input: Queued: `N#Cc1c(-c2ccccc2)cc(-c2ccc(Nc3nc(Nc4ccc(Cl)cc4)nc(Nc4ccc(Cl)cc4)n3)cc2)nc1N`
Output: 15.6

Input: Then `CC(=O)O[C@H]1C[C@@H]2C(C)(C)C(=O)CC[C@@]2(C)c2ccc(C(C)C)cc21` ?
Output: 99.2

Input: What do you get for `Nc1nc(-c2ccc(Cl)cc2)nc2c1sc(=S)n2-c1ccccc1` ?
Output: 103

* * *

// growth lookup, one value per entry
- System: HL-60(TB) leukemia
- Protocol details: NCI-60 one-dose screen, 48 h (100 = growth as untreated, 0 = no growth, -100 = all killed)
- Measurement conditions: 10 µM unless noted
The panel holds about 83,000 compounds, 20% with a hit somewhere; the sample as a whole holds those more often. Activity calls are given as the source filed them. Rule for the calls: active = growth percent below 10; inactive = the rest.

Solved entries:
* O=[N+]([O-])c1ccc(Sc2nc(Cl)nc(NC3CCCC3)n2)cc1 | -26% [100 µM] (active)
* COc1cccc(/C=C2\SC(N3CCN(c4ccccn4)CC3)=NC2=O)c1 | 95.5% (inactive)
* O=c1cc(-c2ccccc2)[nH]c2ncc(-c3ccc(F)cc3)n12 | 18.9% (inactive)
* O=C(N=c1oc2ccccc2cc1-c1cc2ccccc2[nH]1)Nc1ccc(Cl)cc1 | 78.6% (inactive)

Now consider a different compound.
Input: Which growth is listed for O=C(N=C1C(=O)C2(CCCCC2)C2(N=C(c3ccccc3)OC2=O)C12CCCCC2)c1ccccc1 (stereo not given) ?
Output: 71.8% (inactive)

* * *

- Tested on: HL-60(TB) leukemia
- Protocol details: NCI-60 one-dose screen, 48 h (100 = growth as untreated, 0 = no growth, -100 = all killed)
- Measurement conditions: 10 µM unless noted
- Procedure: Growth inhibition of the HL-60(TB) human tumor cell line is measured as a screen for anti-cancer activity. Cells are grown in 96 well plates and exposed to the test compound for 48 hours. Compounds are tested at a single concentration, which is 10^-5 M for most compounds. The reported endpoint is percent growth (GI% or GIPRCNT), where numbers from 0 - 100% represent growth inhibition, and numbers from -100% - 0 represent cell death. For example, a value of 40 represents 60% growth inhibition. […]
About 83,000 compounds went through this panel and 20% of them were active in at least one assay; those are over-represented in the sample as a whole.
Listed compounds paired with reported growth
Report the figure in % without appending any unit label.

Some compounds with recorded growth:
* O=C(Nc1ccc(Nc2cc(Nc3ccccc3)ncn2)cc1)Nc1cc(C(F)(F)F)ccc1F | 106
* COc1ccc(/C=C2/SC(=O)N(CC(=O)N3CCN(c4cc5c(cc4F)c(=O)c(C(=O)O)cn5C4CC4)CC3)C2=O)cc1 | 105
* CC1SC(c2ccc(N(C)C)cc2)N(NC(=O)C(O)(c2ccccc2)c2ccccc2)C1=O (stereo not given) | 84.2
* CCOC(=O)C(=CCC(C)C)C(=O)OCC | 40.5

Input: Fill in the recorded growth for this compound, with HL-60(TB) leukemia as test system: `Cn1c([N+](=O)[O-])cnc1C=C1C(=O)c2ccccc2C1=O`
Output: 4.69

* * *

- Tested on: OVCAR-5 ovarian
- Protocol details: NCI-60 one-dose screen, 48 h (100 = growth as untreated, 0 = no growth, -100 = all killed)
- Measurement conditions: 10 µM unless noted
- Procedure: Growth inhibition of the OVCAR-5 human tumor cell line is measured as a screen for anti-cancer activity. Cells are grown in 96 well plates and exposed to the test compound for 48 hours. Compounds are tested at a single concentration, which is 10^-5 M for most compounds. The reported endpoint is percent growth (GI% or GIPRCNT), where numbers from 0 - 100% represent growth inhibition, and numbers from -100% - 0 represent cell death. For example, a value of 40 represents 60% growth inhibition. […]
The panel holds about 83,000 compounds, 20% with a hit somewhere; the sample as a whole holds those more often.
Measured quantity: growth (%)
Just the number in %, nothing appended.

For orientation, consider the following solved cases.
- CC(C)[C@]12O[C@H]1[C@@H]1O[C@]13[C@]1(O[C@H]1C[C@H]1C4=C(CC[C@@]13C)C(=O)OC4)[C@@H]2OC(=O)OC(C)(C)C: 24.4
- CC(C)(C)NCC(O)c1ccccc1Cl (stereo unspecified): 11

Input: Sample CCCCCCCCCCCCOc1ccc(C(=O)Oc2ccc(CSP3(=O)OCC4OC(n5cnc6c(N)ncnc65)C(F)C4OP(=O)(O)OCC4OC(n5ccc(=O)[nH]c5=O)C(F)C4O3)cc2)cc1 (stereo unspecified) — what was its growth?
Output: 115

Input: What about this molecule? `Oc1ccc2c3c1O[C@H]1c4[nH]c5ccccc5c4C[C@@]4(O)C(C2)N(CC2CC2)CC[C@]314`
Output: 106

Input: Now the same for `CN=C(NN)NN`
Output: 111

Input: What about this molecule? `O=C(O)c1cccc(CCl)c1`
Output: 102

Input: Same again, this time with C=CC(=O)NC(O)C(Cl)(Cl)Cl (stereo unspecified)
Output: 107

Input: Moving on to `COc1ccccc1N1CCN(CCc2c[nH]c3cc4c(cc23)OCO4)CC1`
Output: 60.2

Input: What do you get for CCC1CN1P(=O)(OCCOC)N1CC1CC (stereo unspecified) ?
Output: 103

Input: Can you check `CC(C)(C)N(Cc1ccccc1)N=O` next?
Output: 98.4

Input: Record: `Cc1cc(CCl)c(C)cc1CCl`
Output: 141

* * *

- Test system: HL-60(TB) leukemia
- Protocol details: NCI-60 one-dose screen, 48 h
- Measurement conditions: 10 µM unless noted
The panel holds about 83,000 compounds, 20% with a hit somewhere; the sample as a whole holds those more often. Active and inactive are the calls of the source. Rule for the calls: active = growth percent below 10; inactive = the rest.
The categories you may choose from are 1 (yes) (active), 0 (no) (inactive)

• O=C(O)c1cc(I)ccc1O = 0 (no)
• CCC(C)NCC(=O)O (stereo unspecified) = 0 (no)
• Cc1ccc(S(=O)(=O)N(CC[C@@H]2C[C@H]2c2cc3ccccc3o2)C(=O)NC2CCCCC2)cc1 = 0 (no)
• Nc1n[nH]c2cccc(C#Cc3cccc(NC(=O)c4cc(F)cc(C(F)(F)F)c4)c3)c12 = 0 (no)
• CCOC(=O)c1ccc(N2NC(=O)/C(=C/c3ccc([N+](=O)[O-])o3)C2=O)cc1 = 0 (no)
• CCN(CC)CCOc1cccc2c1C(=O)c1ccccc1C2=O = 0 (no)
• Cc1ccc(NC(=O)c2sc3nc(C)c(Br)c(C)c3c2N)cc1 = 0 (no)
• Cc1ccc(/C=C/C(=O)c2ccc(-n3cc(CN4CCN(c5cc6c(cc5F)c(=O)c(C(=O)O)cn6C5CC5)CC4)nn3)cc2)cc1 = 0 (no)

Input: What outcome does the record of this test show for `NS(=O)(=O)c1ccc(C(=O)N=Nc2c(O)[nH]c3ccc(Cl)cc23)cc1` ?
Output: 0 (no)

Input: Continue with CCC(CCCN1C(=O)c2ccccc2C1=O)Nc1cc(OC)cc2cccnc12 (stereo unspecified)
Output: 0 (no)

Input: Same for `CC(C)(C)c1cc(O)c(O)c(C(C)(C)C)c1`
Output: 1 (yes)
